- Measured On: RXRa (Homo sapiens, UniProt P19793)
- Sequence (P19793 whole entry): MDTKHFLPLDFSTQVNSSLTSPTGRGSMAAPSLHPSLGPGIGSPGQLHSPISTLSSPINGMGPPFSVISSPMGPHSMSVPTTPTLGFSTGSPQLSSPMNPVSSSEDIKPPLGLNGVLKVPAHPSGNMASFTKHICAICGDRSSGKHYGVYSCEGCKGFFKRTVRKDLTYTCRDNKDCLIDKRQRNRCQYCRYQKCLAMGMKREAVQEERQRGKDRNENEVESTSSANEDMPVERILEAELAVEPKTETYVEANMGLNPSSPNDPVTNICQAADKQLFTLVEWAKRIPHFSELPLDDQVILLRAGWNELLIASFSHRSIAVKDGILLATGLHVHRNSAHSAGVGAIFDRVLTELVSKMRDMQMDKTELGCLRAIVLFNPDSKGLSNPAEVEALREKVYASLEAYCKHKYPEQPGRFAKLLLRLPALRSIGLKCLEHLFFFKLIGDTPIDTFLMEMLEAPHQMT
- Assay Procedure: no ligand; PBM; 180 nM; PBS pH 7.4, 2% milk, 0.02% Triton X-100, 1 mM DTT, BSA, 0.4 mg/ml salmon testes DNA
- Reported Conditions: tags: His cleaved; chain copies: 2; label: surface-attached array probe
Reported Metric: binding signal

In: I would be grateful if you could share the reported binding signal for NRC3_wobSeed13_DR0_A8G_o1 (dsDNA) DNA 1: GCCGTCCGAGGTCAAGGTCAGTGAAAGAGACTCGAAGCGATTGACAGCGTAGAATGAAGG DNA 2: CCTTCATTCTACGCTGTCAATCGCTTCGAGTCTCTTTCACTGACCTTGACCTCGGACGGC .
Out: 8 PBM z-score against 500 random probes
